- MEASUREMENT TARGET: M2 muscarinic receptor (Homo sapiens)
- Construct: expressed in transfected cells; host or cells: CHO (M2-CHO)
- PROCEDURE TEXT: Functional mobilization of intracellular calcium (FLIPR) in CHO cells expressing M2
- Type: cell-based
- TEST CONDITIONS: CHO; 100% = maximum response obtained with the Carbachol control; read-out: M2 Efficacy
The entries below are paired with their reported Emax.

{"columns": ["COMPOUND", "Emax"],
 "data": [
  ["CC(C)(C)CCN1CCC2(CC[C@@H](NC(=O)Cc3cccnc3)c3ccc(F)cc32)CC1 [compound 65]", "< 25%"],
  ["CC(=O)N[C@H]1CCC2(CCN(CC(C)C)CC2)c2ccccc21 [compound 104]", "25 to 100%"],
  ["CC(=O)N(C(C)C)[C@H]1CCC2(CCN(CCC(C)C)CC2)c2ccccc21 [compound 47]", "< 25%"],
  ["CC(=O)N(C(C)C)[C@H]1CCC2(CCN(CCC(C)(C)C)CC2)c2cc(F)ccc21 [compound 86]", "< 25%"],
  ["CCN(C(=O)C1CCCO1)[C@H]1CCC2(CCN(CCC(C)(C)C)CC2)c2ccccc21 (stereo partly drawn) [compound 39]", "< 25%"],
  ["CC[C@@H](C)CN1CCC2(CC[C@H](NC(C)=O)c3ccccc32)CC1 [compound 56]", "25 to 100%"]
]}

----------
- MEASUREMENT TARGET: M1 muscarinic receptor (Homo sapiens, UniProt P11229)
- Construct: expressed in transfected cells; host or cells: CHO (M1-CHO)
- Sequence (P11229 whole entry): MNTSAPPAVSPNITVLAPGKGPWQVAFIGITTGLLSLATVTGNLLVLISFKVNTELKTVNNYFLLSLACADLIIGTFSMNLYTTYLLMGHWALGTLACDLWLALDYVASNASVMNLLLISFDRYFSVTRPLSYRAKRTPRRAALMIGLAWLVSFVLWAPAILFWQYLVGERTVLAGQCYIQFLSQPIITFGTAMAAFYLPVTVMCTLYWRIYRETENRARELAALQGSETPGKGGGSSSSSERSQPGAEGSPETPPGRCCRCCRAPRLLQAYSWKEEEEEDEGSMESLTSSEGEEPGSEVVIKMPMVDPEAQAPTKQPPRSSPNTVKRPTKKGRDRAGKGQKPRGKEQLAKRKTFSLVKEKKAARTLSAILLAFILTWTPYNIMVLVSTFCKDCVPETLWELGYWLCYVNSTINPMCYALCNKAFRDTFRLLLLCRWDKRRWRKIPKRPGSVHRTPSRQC
- PROCEDURE TEXT: Functional mobilization of intracellular calcium (FLIPR) in CHO cells expressing M1
- Assay type: cell-based
- TEST CONDITIONS: CHO; 100% efficacy = maximum response obtained with the Carbachol control
# maps each entry to its Emax

{"columns": ["COMPOUND", "Emax"],
 "data": [
  ["CC(C)(C)CCN1CCC2(CC1)C[C@H](NC(=O)C1CC1)c1ccccc12", "25 to 100%"],
  ["C=CCCCN1CCC2(CC1)C[C@H](NC(C)=O)c1ccccc12", "25 to 100%"],
  ["Cn1cncc1C(=O)N[C@H]1CCC2(CCN(CCC(C)(C)C)CC2)c2ccccc21", "25 to 100%"],
  ["CC(=O)N[C@H]1CC2(CCN(C(C)CC(C)C)CC2)c2ccccc21 (some centres unmarked)", "< 25%"],
  ["CC(C)(C)CCN1CCC2(CC[C@@H](NC(=O)C3CC3)c3ccc(F)cc32)CC1", "25 to 100%"],
  ["Cc1ccc2c(c1)C(=O)CC21CCN(CCC(C)(C)C)CC1", "25 to 100%"],
  ["CC(C)CCN1CCC2(CC1)C[C@H](NC(=O)N1CCCC1)c1ccccc12", "< 25%"],
  ["CC(C)(C)CCN1CCC2(CC[C@@H](NC(=O)[C@H]3CCC(=O)N3)c3ccc(F)cc32)CC1", "< 25%"]
]}

----------
- MEASUREMENT TARGET: M2 muscarinic receptor (Homo sapiens)
- Sequence (P08172 1-466): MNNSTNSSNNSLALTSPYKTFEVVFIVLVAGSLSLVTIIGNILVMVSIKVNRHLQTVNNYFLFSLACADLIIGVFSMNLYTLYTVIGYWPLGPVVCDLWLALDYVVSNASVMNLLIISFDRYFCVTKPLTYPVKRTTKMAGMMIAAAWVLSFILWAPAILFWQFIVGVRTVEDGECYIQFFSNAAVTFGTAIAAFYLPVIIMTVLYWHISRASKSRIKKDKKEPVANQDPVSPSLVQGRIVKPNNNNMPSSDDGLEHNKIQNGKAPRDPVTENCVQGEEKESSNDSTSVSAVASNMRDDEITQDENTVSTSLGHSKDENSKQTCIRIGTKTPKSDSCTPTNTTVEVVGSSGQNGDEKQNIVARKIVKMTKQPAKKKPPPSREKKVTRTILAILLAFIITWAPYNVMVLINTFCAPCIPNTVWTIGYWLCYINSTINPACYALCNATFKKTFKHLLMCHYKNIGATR
- PROCEDURE TEXT: Functional mobilization of intracellular calcium (FLIPR) in CHO cells expressing M2
- TEST CONDITIONS: CHO cells expressing M2, FLIPR calcium

{"columns": ["COMPOUND", "EC50"],
 "data": [
  ["CC(C)(C)CCN1CCC2(CC[C@H](NC(=O)c3cccnc3)c3ccccc32)CC1 [compound 74]", "< 2 µM"],
  ["C[C@@H](O)CC(=O)N[C@@H]1CCC2(CCN(CCC(C)(C)C)CC2)c2ccccc21 [compound 139]", "> 5 µM"],
  ["CCN(C(=O)CCNC(C)=O)[C@@H]1CCC2(CCN(CCC(C)(C)C)CC2)c2ccccc21 [compound 100]", "> 5 µM"],
  ["CC(C)(C)CCN1CCC2(CC[C@H](NC(=O)CCN3CCCC3=O)c3ccc(F)cc32)CC1 [compound 138]", "< 2 µM"],
  ["CC(C)(C)CCN1CCC2(CC[C@H](N3C(=O)CCC3=O)c3ccccc32)CC1 [compound 102]", "> 5 µM"],
  ["CC(=O)N[C@H]1CCC2(CCN(CC(C)C)CC2)c2ccccc21 [compound 104]", "> 5 µM"],
  ["CCN(C(=O)C1CCOC1)[C@H]1CCC2(CCN(CCC(C)(C)C)CC2)c2ccccc21 (some centres unmarked) [compound 9]", "> 5 µM"],
  ["CC(C)CCN1CCC2(CC[C@H](N3CCCC3=O)c3ccccc32)CC1 [compound 90]", "> 5 µM"]
]}
